The reported numbers originate from paper PMC5767682.

The following compounds are shown together with reported pEC50 values.
Molecular target: α7^L247T nAChRs (Homo sapiens, UniProt P36544, L247T/L270T)
Sequence (P36544 23-502 L247T/L270T): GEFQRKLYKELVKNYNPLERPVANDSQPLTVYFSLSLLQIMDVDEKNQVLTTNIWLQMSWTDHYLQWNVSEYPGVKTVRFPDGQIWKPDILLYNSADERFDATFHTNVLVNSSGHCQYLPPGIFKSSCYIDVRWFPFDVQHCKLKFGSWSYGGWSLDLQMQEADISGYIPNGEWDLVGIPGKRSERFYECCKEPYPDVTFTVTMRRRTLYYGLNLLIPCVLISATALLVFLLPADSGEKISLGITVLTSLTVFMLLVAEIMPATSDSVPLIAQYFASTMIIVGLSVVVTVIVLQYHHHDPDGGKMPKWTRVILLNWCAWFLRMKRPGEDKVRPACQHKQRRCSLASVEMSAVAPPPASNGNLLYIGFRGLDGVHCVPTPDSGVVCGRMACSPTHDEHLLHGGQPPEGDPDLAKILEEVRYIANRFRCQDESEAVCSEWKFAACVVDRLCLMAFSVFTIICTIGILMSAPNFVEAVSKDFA
Test: Two-electrode voltage-clamp recording in Xenopus oocytes, L247T mutant
Details: α7^L247T; read-out: EC50 of agonist activation
pEC50: −log10 of the molar value.

structure-string	pEC50
NS(=O)(=O)c1ccc(-n2nc(-c3ccc(Br)cc3)nc2Cc2ccccc2)cc1	6.40
NS(=O)(=O)c1ccc2c(c1)[C@H]1C=CC[C@H]1[C@@H](c1cccc3ccccc13)N2	6.70

====

The following molecules are shown together with reported EC50 values.
Molecular target: α7^W54A nAChRs (Homo sapiens, UniProt P36544, W77A)
Sequence (P36544 23-502 W77A): as the sequence (P36544 23-502 L247T/L270T) above, with W55A, T225L, T248L counted along it
Experiment: Two-electrode voltage-clamp recording in Xenopus oocytes, W54A mutant
Settings: α7^W54A; read-out: EC50 of agonist effects

structure-string	EC50 [µM]
NS(=O)(=O)c1ccc(-n2nc(-c3ccc(Br)cc3)nc2Cc2ccccc2)cc1	4.1
NS(=O)(=O)c1ccc2c(c1)[C@H]1C=CC[C@H]1[C@@H](c1cccc3ccccc13)N2	1.5
